# TARGET_UNDER_TEST: recombinant human dopamine transporter (Homo sapiens, UniProt Q01959)
# Construct: expressed in transfected cells
# Sequence (Q01959 whole entry): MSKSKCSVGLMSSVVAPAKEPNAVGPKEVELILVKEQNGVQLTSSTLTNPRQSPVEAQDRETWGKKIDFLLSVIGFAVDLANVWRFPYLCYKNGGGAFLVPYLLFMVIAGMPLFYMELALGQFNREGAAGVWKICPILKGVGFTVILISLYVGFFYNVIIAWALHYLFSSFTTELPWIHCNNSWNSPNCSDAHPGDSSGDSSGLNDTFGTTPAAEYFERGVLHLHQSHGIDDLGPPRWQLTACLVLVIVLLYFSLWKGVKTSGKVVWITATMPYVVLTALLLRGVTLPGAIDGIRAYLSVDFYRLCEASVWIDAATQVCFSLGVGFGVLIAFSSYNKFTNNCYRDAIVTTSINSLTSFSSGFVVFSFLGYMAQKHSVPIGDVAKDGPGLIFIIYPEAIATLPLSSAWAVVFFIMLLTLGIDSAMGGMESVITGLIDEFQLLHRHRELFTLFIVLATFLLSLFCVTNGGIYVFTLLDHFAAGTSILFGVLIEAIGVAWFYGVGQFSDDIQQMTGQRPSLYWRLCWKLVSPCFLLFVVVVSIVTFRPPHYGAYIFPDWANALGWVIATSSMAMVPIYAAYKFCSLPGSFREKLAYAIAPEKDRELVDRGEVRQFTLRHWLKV
# METHOD_NOTES: [125I]RTI-55 binding, dopamine transporter in HEK 293 cells
# CONDITION_CONTEXT: DOPAMINE [I125]-RTI-55 BINDING (Ki), RS/SR racemates table; HEK 293 cells
Below, each entry is listed with its recorded pKi.
The quantity pKi is defined as the negative base-10 logarithm of the molar concentration.

Some compounds with known pKi results, for comparison:
[[record]]
compound = "COC(=O)C(c1ccc(Cl)cc1)C1CCCCN1 (single isomer, unassigned)"
experimental_result = 5.70

[[record]]
compound = "Clc1ccc(C(C2CCCC2)C2CCCCN2)cc1 (single isomer, unassigned)"
experimental_result = 6.16

[[record]]
compound = "CCCCC(c1ccc(Cl)cc1)C1CCCCN1 (single isomer, unassigned)"
experimental_result = 6.54


stdin: // query pKi value for entry Clc1ccc(C(CCc2ccccc2)C2CCCCN2)cc1 (single isomer, unassigned)
stdout: 6.15

###

# TARGET_UNDER_TEST: recombinant human serotonin transporter (Homo sapiens, UniProt P31645)
# Construct: expressed in transfected cells
# Sequence (P31645 whole entry): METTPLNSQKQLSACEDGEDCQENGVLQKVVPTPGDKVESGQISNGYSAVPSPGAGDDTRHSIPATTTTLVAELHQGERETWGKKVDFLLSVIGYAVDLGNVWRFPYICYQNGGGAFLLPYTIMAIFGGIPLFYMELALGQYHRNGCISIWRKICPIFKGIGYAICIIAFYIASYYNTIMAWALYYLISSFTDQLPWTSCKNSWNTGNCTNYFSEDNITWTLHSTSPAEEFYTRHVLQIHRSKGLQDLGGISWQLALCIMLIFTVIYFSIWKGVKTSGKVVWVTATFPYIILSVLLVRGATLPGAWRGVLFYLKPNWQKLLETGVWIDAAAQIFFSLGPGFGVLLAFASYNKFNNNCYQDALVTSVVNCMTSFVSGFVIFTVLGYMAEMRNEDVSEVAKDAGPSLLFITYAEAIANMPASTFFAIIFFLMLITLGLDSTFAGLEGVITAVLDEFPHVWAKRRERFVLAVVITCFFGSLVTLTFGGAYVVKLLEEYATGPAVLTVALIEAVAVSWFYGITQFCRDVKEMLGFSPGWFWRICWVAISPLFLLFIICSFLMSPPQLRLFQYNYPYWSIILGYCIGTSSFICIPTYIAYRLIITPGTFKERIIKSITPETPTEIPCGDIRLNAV
# METHOD_NOTES: biochemical
# Format: binding
# CONDITION_CONTEXT: RS/SR racemates table; HEK 293 cells; read-out: SEROTONIN [I125]-RTI-55 BINDING (Ki)
Below, each entry is listed with its recorded Ki.

Some molecules with known Ki results, for comparison:
[[record]]
molecule = "Clc1ccc(C(C2CCCC2)C2CCCCN2)cc1 (single isomer, unassigned)"
measured_property = "Ki"
experimental_result = "4.6 µM"

[[record]]
molecule = "Clc1ccc(C(CC2CCCCC2)C2CCCCN2)cc1 (single isomer, unassigned)"
measured_property = "Ki"
experimental_result = "3.7 µM"

[[record]]
molecule = "CC(C)CC(c1ccc(Cl)c(Cl)c1)C1CCCCN1 (racemic)"
measured_property = "Ki"
experimental_result = "0.45 µM"

[[record]]
molecule = "CC(C)(C)CC(c1ccc(Cl)cc1)C1CCCCN1 (racemic)"
measured_property = "Ki"
experimental_result = "3.5 µM"

[[record]]
molecule = "COC(=O)C(c1ccc(Cl)c(Cl)c1)C1CCCCN1 (single isomer, unassigned)"
measured_property = "Ki"
experimental_result = "2.5 µM"

[[record]]
molecule = "CCCC(c1ccc(Cl)cc1)C1CCCCN1 (racemic)"
measured_property = "Ki"
experimental_result = "3.2 µM"


Next, consider the following molecule.
stdin: Could you share what Ki was measured for CC(C)CC(c1ccc(Cl)c(Cl)c1)C1CCCCN1C (single isomer, unassigned) , tested on recombinant human serotonin transporter (Homo sapiens, UniProt P31645)?
stdout: 1.5 µM

###

# TARGET_UNDER_TEST: recombinant human norepinephrine transporter (Homo sapiens, UniProt P23975)
# Construct: expressed in transfected cells
# Sequence (P23975 whole entry): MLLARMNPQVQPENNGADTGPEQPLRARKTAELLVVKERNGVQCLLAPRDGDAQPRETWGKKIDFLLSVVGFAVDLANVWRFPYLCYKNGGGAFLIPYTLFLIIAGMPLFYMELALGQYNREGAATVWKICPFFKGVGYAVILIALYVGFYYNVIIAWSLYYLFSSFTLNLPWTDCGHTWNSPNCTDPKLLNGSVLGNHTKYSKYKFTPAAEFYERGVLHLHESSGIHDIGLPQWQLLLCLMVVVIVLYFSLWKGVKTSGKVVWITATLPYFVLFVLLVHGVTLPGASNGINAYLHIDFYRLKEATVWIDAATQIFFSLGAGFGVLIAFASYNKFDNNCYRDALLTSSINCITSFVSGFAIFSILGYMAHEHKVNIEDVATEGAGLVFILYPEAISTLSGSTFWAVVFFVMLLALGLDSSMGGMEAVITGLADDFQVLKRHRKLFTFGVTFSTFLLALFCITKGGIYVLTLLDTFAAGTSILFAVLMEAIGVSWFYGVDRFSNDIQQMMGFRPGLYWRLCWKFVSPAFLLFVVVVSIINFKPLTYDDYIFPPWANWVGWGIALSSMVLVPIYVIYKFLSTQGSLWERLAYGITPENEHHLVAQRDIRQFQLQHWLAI
# METHOD_NOTES: biochemical
# Type: binding
# CONDITION_CONTEXT: RS/SR racemates table; HEK 293 cells; read-out: NOREPINEPHRINE [I125]-RTI-55 BINDING (Ki)
Below, each entry is listed with its recorded Ki.
Quick reminder: number only, in nM, skip the unit.

[[record]]
compound = "Clc1ccc(C(CC2CCCC2)C2CCCCN2)cc1 (racemic) [LL]"
target_under_test = "recombinant human norepinephrine transporter (Homo sapiens, UniProt P23975)"
measured_property = "Ki"
experimental_result = 2600


stdin: // query Ki value for entry COC(=O)C(c1ccc(Cl)c(Cl)c1)C1CCCCN1 (single isomer, unassigned) [MM]
stdout: 4200

stdin: // query Ki value for entry CC(C)CC(c1ccc(Cl)cc1)C1CCCCN1 (racemic) [Sample DD]
stdout: 4500

stdin: // query Ki value for entry CC(C)CC(c1ccc(Cl)c(Cl)c1)C1CCCCN1 (racemic) [Sample NN]
stdout: 120

stdin: // query Ki value for entry CC(C)CC(c1ccc(Cl)c(Cl)c1)C1CCCCN1C (single isomer, unassigned) [OO]
stdout: 660
